Molecular target: UniProt P28221
Sequence (P28221 whole entry): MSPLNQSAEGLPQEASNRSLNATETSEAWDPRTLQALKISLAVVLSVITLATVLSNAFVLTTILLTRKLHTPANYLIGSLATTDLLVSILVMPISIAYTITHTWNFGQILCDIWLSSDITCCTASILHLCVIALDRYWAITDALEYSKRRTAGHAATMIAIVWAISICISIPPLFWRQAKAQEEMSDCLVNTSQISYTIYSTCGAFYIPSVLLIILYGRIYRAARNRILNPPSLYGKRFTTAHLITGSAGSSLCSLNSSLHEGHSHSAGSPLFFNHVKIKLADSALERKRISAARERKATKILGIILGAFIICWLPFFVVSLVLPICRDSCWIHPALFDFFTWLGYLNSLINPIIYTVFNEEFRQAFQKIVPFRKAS
MEASUREMENT_NAME: Ki (nM)

(A) CN1CCc2c(c3cccc4c3n2Cc2ccccc2O4)C1 [Compound 13b]
(B) CN1CCc2c(c3cccc4c3n2-c2ccccc2CC4)C1 [Compound 6a, reference compound]
(C) CN1CCc2c(c3cccc4c3n2Cc2ccccc2C4)C1 [Compound 13a]
Arrange the 3 entries by Ki so the values rise. A complete answer lists every label in the requested sequence.
C, B, A
(C: 29 nM, B: 85 nM, A: 385 nM)

###

Target: Muscarinic M1 (Homo sapiens)
Sequence (P11229 1-460): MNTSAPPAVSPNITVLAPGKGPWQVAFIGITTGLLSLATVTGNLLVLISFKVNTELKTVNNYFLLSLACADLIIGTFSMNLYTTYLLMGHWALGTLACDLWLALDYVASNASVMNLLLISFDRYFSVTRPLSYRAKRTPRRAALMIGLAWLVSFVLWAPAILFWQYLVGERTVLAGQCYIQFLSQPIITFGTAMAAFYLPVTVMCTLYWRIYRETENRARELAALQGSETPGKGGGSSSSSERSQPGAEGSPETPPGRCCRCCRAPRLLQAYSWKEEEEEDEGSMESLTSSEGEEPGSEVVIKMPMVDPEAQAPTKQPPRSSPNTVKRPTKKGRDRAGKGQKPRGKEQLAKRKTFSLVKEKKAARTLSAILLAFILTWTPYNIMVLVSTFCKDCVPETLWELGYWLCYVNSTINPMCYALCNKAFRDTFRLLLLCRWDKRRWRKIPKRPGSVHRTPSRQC
MEASUREMENT_NAME: Ki (µM)
Supply the numeric figure in µM, leaving out any unit text.

Look up and report measured Ki for this entry: CN1CCc2c(c3cccc4c3n2-c2ccccc2CC4)C1 [Compound 6a, reference compound]
4.46

###

Target: α-Adrenergic α2B (Homo sapiens, UniProt P18089)
Sequence (P18089 1-450): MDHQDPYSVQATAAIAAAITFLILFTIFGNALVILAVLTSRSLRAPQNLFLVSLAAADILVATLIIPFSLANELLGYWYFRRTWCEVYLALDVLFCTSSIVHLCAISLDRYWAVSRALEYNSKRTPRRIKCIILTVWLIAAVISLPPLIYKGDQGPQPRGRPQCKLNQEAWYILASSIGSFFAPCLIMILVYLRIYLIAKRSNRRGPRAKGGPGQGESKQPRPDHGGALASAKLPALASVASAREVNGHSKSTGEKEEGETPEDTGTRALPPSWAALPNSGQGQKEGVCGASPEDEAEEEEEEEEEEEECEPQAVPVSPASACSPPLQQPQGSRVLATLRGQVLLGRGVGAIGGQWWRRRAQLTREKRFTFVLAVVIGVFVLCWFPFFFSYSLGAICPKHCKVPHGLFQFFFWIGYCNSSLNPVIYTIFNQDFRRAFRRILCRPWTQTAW
pKi: −log10 of the molar value.
MEASUREMENT_NAME: pKi

(P) CN1CCc2c(c3cccc4c3n2Cc2ccccc2C4)C1 [Compound 13a]
(Q) CN1CCc2c(c3cccc4c3n2-c2ccccc2CC4)C1 [Compound 6a, reference compound]
Higher pKi: P or Q ? Kindly give the label for the entry you pick.
Q

###

Target: UniProt:P47898
Sequence (P47898 whole entry): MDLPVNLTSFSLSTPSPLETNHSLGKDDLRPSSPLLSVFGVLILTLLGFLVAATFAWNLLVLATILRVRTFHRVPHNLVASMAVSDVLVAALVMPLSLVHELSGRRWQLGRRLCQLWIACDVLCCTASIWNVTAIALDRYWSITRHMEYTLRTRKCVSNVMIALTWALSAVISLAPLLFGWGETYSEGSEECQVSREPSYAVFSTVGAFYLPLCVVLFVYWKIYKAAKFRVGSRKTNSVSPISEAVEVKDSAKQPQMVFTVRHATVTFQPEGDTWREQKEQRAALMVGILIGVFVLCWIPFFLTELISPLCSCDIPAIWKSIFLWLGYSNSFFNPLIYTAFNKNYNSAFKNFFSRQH
MEASUREMENT_NAME: Ki (nM)

(1) CN1CCc2c(c3cccc4c3n2Cc2ccccc2O4)C1 [Compound 13b]
(2) CN1CCc2c(c3cccc4c3n2-c2ccccc2CC4)C1 [Compound 6a, reference compound]
Which has the smaller recorded Ki, 1 or 2 ? Kindly give the label for the entry you pick.
2
(2: 750 nM, 1: 1910 nM)
